# Test system: rat Schwann cells
# PROCEDURE_TEXT: In vitro test using Schwann cells (Schwann cell differentiation promotion, MAG immunostaining)
# Type: cell-based
# CONDITION_DESCRIPTION: Rattus norvegicus, 72 h; compound 3 μmol/L, 3 days, MAG-positive area/cell nuclei; read-out: Schwann cell differentiation promotion rate (% of vehicle) 3 μmol/L

COMPOUND: O=C(O)CCc1ccccc1OCC[C@@H](O)/C=C/c1cccc(C(O)CCc2ccccc2)c1 (stereo partly shown)
TARGET_OR_TEST_SYSTEM: rat Schwann cells
activity at 3 µM, %: 628
--
COMPOUND: O=C(O)CCc1ccccc1OCCC/C=C/c1nc(C(O)Cc2ccccc2)cs1 (stereo not shown)
TARGET_OR_TEST_SYSTEM: rat Schwann cells
activity at 3 µM, %: 374
--
COMPOUND: COC(=O)CCc1ccccc1OCCC(=O)/C=C/c1cccc(NS(=O)(=O)c2ccccc2)c1
TARGET_OR_TEST_SYSTEM: rat Schwann cells
activity at 3 µM, %: 256
--
COMPOUND: O=C(O)CCc1ccccc1OCC[C@@H](O)/C=C/c1cccc(NS(=O)(=O)c2coc3ccccc23)c1
TARGET_OR_TEST_SYSTEM: rat Schwann cells
activity at 3 µM, %: 252

----------
# System: streptozotocin-induced rat model
# PROCEDURE_TEXT: Test using streptozotocin-induced rat model (nociceptive threshold, von Frey)
# Assay type: in vivo
# CONDITION_DESCRIPTION: 0.3 mg/kg oral once per day; 21 days after STZ
Rule: Nociceptive threshold improve rate (%) 7 days after start of administration of 30% or more gives T; anything lower gives F.

COMPOUND: O=C(O)CCc1ccccc1OCC[C@@H](O)CCc1cccc(C(O)Cc2ccccc2)c1 (stereo in doubt) [Example 36]
CLASS: T
//
COMPOUND: O=C(O)CCc1ccccc1OCC[C@@H](O)CCc1cccc(C(O)Cc2ccccc2)c1 (stereo in doubt) [Example 37]
CLASS: T
//
COMPOUND: O=C(O)CCc1ccccc1OCC[C@@H](O)/C=C/c1cccc(NS(=O)(=O)C2CCCC2)c1
CLASS: F
//
COMPOUND: O=C(O)CCc1ccccc1OCC[C@@H](O)/C=C/c1cccc(NC(=O)c2ccccc2)c1
CLASS: F
//
COMPOUND: O=C(O)CCc1ccccc1OCCC/C=C/c1cccc(NS(=O)(=O)c2ccccc2)c1
CLASS: T
//
COMPOUND: O=C(O)CCc1ccccc1OCC[C@@H](O)/C=C/c1cccc(NS(=O)(=O)c2ccccc2)c1
CLASS: F
//
COMPOUND: O=C(O)CCc1ccccc1OCC[C@@H](O)/C=C/c1cccc2c1CCN2S(=O)(=O)c1ccccc1
CLASS: F
//
COMPOUND: O=C(O)CCc1ccccc1OCC[C@@H](O)/C=C/c1ccc2c(c1)CN(S(=O)(=O)c1ccccc1)C2
CLASS: F

----------
# System: rat Schwann cells
# PROCEDURE_TEXT: In vitro test using Schwann cells (Schwann cell differentiation promotion, MAG immunostaining)
# Assay type: cell-based
# CONDITION_DESCRIPTION: Rattus norvegicus, 72 h; compound 3 μmol/L, 3 days, MAG-positive area/cell nuclei; read-out: Schwann cell differentiation promotion rate (% of vehicle) 3 μmol/L

MOLECULE: O=C(O)CCc1ccccc1OCCCCCC1CCC(NS(=O)(=O)c2ccccc2)CC1 (centres unmarked)
activity at 3 µM [%]: 465

MOLECULE: O=C(O)CCc1ccccc1CCCC(=O)CCc1cccc(NS(=O)(=O)c2ccccc2)c1
activity at 3 µM [%]: 504

MOLECULE: CN(C)C(=O)CCc1ccccc1OCC[C@@H](O)/C=C/c1cccc(NS(=O)(=O)c2ccccc2)c1
activity at 3 µM [%]: 788

MOLECULE: O=C(O)CCc1ccccc1OCC[C@@H](O)CCc1cccc(NS(=O)(=O)C2CCCC2)c1
activity at 3 µM [%]: 244

MOLECULE: O=C(O)CCc1ccccc1OCC[C@@H](O)CCc1cccc(C(O)Cc2ccccc2)c1 (stereo in doubt) [Example 37]
activity at 3 µM [%]: 915

MOLECULE: O=C(O)CCc1ccccc1OCC[C@@H](O)/C=C/c1cccc(C[C@H](O)c2ccccc2)c1
activity at 3 µM [%]: 439

MOLECULE: O=C(O)CCc1ccccc1OCC[C@@H](O)/C=C/c1cccc(S(=O)(=O)Nc2ccccc2)c1
activity at 3 µM [%]: 379

MOLECULE: O=C(O)CCc1ccccc1OCC[C@@H](O)/C=C/c1cccc(NS(=O)(=O)c2ccccc2)c1
activity at 3 µM [%]: 248

MOLECULE: O=C(O)CCc1ccccc1OCC[C@@H](O)/C=C/c1ccc2c(c1)CN(S(=O)(=O)c1ccccc1)CC2
activity at 3 µM [%]: 598

MOLECULE: O=C(O)CCc1ccccc1OCC[C@@H](O)/C=C/c1cccc(NS(=O)(=O)c2ccccn2)c1
activity at 3 µM [%]: 300

MOLECULE: O=C(O)CCc1ccccc1OCC[C@@H](O)/C=C/c1cccc(C(=O)Nc2ccccc2)c1
activity at 3 µM [%]: 459

MOLECULE: O=C(O)CCc1ccccc1OCCCC(=O)CCc1cccc(NS(=O)(=O)c2ccccc2)c1
activity at 3 µM [%]: 354

MOLECULE: O=C(O)CCc1ccccc1OCCOCCc1cccc(NS(=O)(=O)c2ccccc2)c1
activity at 3 µM [%]: 645

MOLECULE: O=C(O)CCc1ccccc1OCC[C@@H](O)/C=C/c1ccc2c(c1)CN(S(=O)(=O)c1ccccc1)C2
activity at 3 µM [%]: 377

MOLECULE: O=C(O)CCc1ccccc1OCCC(F)(F)CCc1cccc(NS(=O)(=O)c2ccccc2)c1
activity at 3 µM [%]: 541

MOLECULE: O=C(O)CCc1ccccc1OCC[C@@H](O)/C=C/c1ccccc1NC(=O)c1ccccc1
activity at 3 µM [%]: 234

MOLECULE: O=C(O)CCc1ccccc1OCC[C@@H](O)CCc1cccc(C(O)Cc2ccccc2)c1 (stereo in doubt) [Example 36]
activity at 3 µM [%]: 732

MOLECULE: O=C(O)CCc1ccccc1OCC[C@@H](O)/C=C/c1ccccc1CNS(=O)(=O)c1ccccc1
activity at 3 µM [%]: 505

MOLECULE: O=C(O)CCc1ccccc1OCC[C@@H](O)/C=C/c1cccc2c1CCN2S(=O)(=O)c1ccccc1
activity at 3 µM [%]: 326

MOLECULE: CC(C)OC(=O)CCc1ccccc1OCC[C@@H](O)/C=C/c1cccc(NS(=O)(=O)c2ccccc2)c1
activity at 3 µM [%]: 593

MOLECULE: O=C(O)CCc1ccccc1OCC[C@@H](O)/C=C/c1cccc(NC(=O)c2ccccc2)c1
activity at 3 µM [%]: 274

MOLECULE: O=C(O)CCc1ccccc1OCC[C@@H](O)/C=C/c1cccc(NCc2ccccc2)c1
activity at 3 µM [%]: 435

MOLECULE: O=C(O)CCc1ccccc1OCCC/C=C/c1cccc(NS(=O)(=O)c2ccccc2)c1
activity at 3 µM [%]: 445

MOLECULE: O=C(O)CCc1ccccc1OCC[C@@H](O)/C=C/c1cccc(NS(=O)(=O)C2CCCC2)c1
activity at 3 µM [%]: 184

MOLECULE: O=C(O)CCc1ccccc1OCC[C@@H](O)C1CC1c1cccc(NS(=O)(=O)c2ccccc2)c1 (some centres unmarked)
activity at 3 µM [%]: 323

MOLECULE: O=C(O)CCc1ccccc1OCC[C@@H](O)/C=C/c1cccc(NS(=O)(=O)c2ccsc2)c1
activity at 3 µM [%]: 270
